Cited source for all entries: paper PMC10786891

Entries and their pKd
measured target: T1, EsCas13d, nuclease-dead (Eubacterium siraeum, UniProt B0MS50, R295A;H300A;R849A;H854A)
T1 sequence: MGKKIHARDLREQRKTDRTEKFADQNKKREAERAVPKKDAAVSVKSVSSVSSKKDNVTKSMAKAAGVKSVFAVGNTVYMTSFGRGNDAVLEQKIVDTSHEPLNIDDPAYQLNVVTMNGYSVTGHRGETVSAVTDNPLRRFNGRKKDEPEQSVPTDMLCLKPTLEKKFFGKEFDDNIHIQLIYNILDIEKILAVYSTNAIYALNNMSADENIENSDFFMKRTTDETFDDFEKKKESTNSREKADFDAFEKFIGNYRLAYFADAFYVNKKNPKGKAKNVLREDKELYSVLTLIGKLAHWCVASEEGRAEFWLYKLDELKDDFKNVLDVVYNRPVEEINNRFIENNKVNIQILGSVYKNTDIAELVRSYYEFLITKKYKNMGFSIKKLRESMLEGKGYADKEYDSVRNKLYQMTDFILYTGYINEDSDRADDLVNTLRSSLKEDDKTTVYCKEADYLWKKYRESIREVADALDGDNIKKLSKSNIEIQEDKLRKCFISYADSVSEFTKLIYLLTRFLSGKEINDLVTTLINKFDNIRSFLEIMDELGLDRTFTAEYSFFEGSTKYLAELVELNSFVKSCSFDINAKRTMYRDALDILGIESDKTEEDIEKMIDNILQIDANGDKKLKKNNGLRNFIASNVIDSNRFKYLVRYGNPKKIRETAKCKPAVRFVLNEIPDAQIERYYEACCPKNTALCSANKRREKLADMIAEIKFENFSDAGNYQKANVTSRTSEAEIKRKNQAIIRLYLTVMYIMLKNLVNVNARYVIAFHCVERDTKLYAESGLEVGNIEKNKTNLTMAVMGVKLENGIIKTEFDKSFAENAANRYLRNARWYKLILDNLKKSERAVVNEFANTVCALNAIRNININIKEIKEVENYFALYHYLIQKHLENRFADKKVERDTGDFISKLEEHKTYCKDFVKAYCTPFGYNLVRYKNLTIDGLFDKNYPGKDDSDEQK
assay remarks: crRNA (strand 1, pre-loaded); Mg2+; 40 mM Tris-HCl pH 7.5, 150 mM NaCl, 6 mM MgCl2, 1 mM DTT, 0.1% Tween-20, 0.2 mg/ml BSA; 25 C; 10 min per concentration, then washed
conditions used: tags: His6-TwinStrep-SUMO cleaved; N-terminal SNAP kept (SNAP-Surface 488); label: 3' end held by stalled T7 RNA polymerase
pKd: −log10 of the molar value.
property name: pKd

# binder, readout number
data = [
    ("target 2 MT 5'PFS GUG 3'PFS UUU (mixed) RNA 1: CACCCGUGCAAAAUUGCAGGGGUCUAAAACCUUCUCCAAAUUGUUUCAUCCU RNA 2: GGGAAUGGAUCCACAUCUACGAAUUCGUGAGGAUGAAACAAUUUGGAGAAGUUUAGAUCGGAAGAGCACACGU", 7.21),
    ("target 1 insU 3' of 9,insG 3' of 4 (mixed) RNA 1: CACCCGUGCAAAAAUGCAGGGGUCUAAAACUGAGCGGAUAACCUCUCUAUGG RNA 2: GGGAAUGGAUCCACAUCUACGAAUUCGUACCAUAGAGAGGUUAUUCCGCGUCACCGAGAUCGGAAGAGCACACGU", 7.87),
    ("target 1 insU 3' of 20,insU 3' of 1 (mixed) RNA 1: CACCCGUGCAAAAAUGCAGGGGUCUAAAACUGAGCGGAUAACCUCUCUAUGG RNA 2: GGGAAUGGAUCCACAUCUACGAAUUCGUACCAUUAGAGAGGUUAUCCGCUCAUCCGAGAUCGGAAGAGCACACGU", 7.85),
    ("target 3 insU 3' of 6,insA 3' of 3 (mixed) RNA 1: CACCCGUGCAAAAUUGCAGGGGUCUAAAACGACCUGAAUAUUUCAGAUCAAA RNA 2: GGGAAUGGAUCCACAUCUACGAAUUCGUUUUUGAUCUGAAAUAUUCUAGGAUCUGCAGAUCGGAAGAGCACACGU", 7.95),
    ("target 2 MT 5'PFS UGG 3'PFS CAC (mixed) RNA 1: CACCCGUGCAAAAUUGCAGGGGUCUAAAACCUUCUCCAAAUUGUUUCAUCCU RNA 2: GGGAAUGGAUCCACAUCUACGAAUUCUGGAGGAUGAAACAAUUUGGAGAAGCACAGAUCGGAAGAGCACACGU", 7.82),
]
